The entries below come with measured Hepatotoxicity (time to onset) values attached.
# assay comment: Times to onset, minimal and maximal, observed in the indexed observations. [column 'DELAI' in source]
# cond: human

[
  {
    "compound": "CC1=C(C(=O)O)N2C(=O)[C@@H](NC(=O)[C@H](N)c3ccc(O)cc3)[C@H]2SC1 [CEFADROXIL]",
    "Hepatotoxicity (time to onset)": "4 days - 6 days"
  },
  {
    "compound": "CC[C@H](C)[C@H]1NC(=O)[C@@H](NC(=O)[C@@H](CC(C)C)N(C)C(=O)[C@@H]2CCCN2C(=O)C(C)O)[C@@H](C)OC(=O)[C@H](Cc2ccc(OC)cc2)N(C)C(=O)[C@@H]2CCCN2C(=O)[C@H](CC(C)C)NC(=O)[C@@H](C)C(=O)[C@H](C(C)C)OC(=O)C[C@@H]1O (some centres not stated) [DIDEMNIN B]",
    "Hepatotoxicity (time to onset)": "1 week"
  },
  {
    "compound": "Nc1cc([As]2[As](c3ccc(O)c(N)c3)[As](c3ccc(O)c(N)c3)[As](c3ccc(O)c(N)c3)[As]2c2ccc(O)c(N)c2)ccc1O.Nc1cc([As]2[As](c3ccc(O)c(N)c3)[As]2c2ccc(O)c(N)c2)ccc1O (configuration not stated)",
    "Hepatotoxicity (time to onset)": "1 week - 1 year"
  },
  {
    "compound": "CC[C@@H](CO)NCCN[C@@H](CC)CO [ETHAMBUTOL]",
    "Hepatotoxicity (time to onset)": "1.5 months - 2 months"
  },
  {
    "compound": "O=C(c1cc(O)c(O)c(O)c1)c1ccc(O)c(O)c1O [EXIFONE]",
    "Hepatotoxicity (time to onset)": "3 weeks - 8 months"
  },
  {
    "compound": "NN [HYDRAZINE]",
    "Hepatotoxicity (time to onset)": "3.5 months"
  }
]

Moving on to the next compound.
QUERY: What Hepatotoxicity (time to onset) value was documented for this compound, COC(=O)[C@H](c1ccccc1Cl)N1CCc2sccc2C1 [CLOPIDOGREL] ?
RESULT: 4 days - 5.5 months

Values were extracted from ChEMBL document CHEMBL3137667.
